test_target: TREK-1 channel (Rattus norvegicus)
Construct: expressed in transfected cells; host or cells: COS7 (Korean Cell Line Bank), transient transfection with Effectene
Sequence (Q920B6 1-426): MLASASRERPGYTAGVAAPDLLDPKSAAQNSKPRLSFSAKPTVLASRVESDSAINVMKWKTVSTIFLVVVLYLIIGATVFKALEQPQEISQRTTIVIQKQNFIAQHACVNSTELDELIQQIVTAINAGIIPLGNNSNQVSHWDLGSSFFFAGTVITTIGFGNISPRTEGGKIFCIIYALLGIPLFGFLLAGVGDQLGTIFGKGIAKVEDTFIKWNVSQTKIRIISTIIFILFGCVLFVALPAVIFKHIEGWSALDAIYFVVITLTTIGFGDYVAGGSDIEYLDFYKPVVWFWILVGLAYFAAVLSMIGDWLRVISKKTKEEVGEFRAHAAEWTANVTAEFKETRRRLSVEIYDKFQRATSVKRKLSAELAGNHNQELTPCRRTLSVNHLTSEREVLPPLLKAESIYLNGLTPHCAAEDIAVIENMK
method_description: Assay for TREK channel inhibition activity (whole cell patch clamp recording, COS7 cell transfected with GFP-rTREK-1)
Format: cell-based
assay_context: COS-7, Table 3 (value ± spread); 101 μM [sic]; COS7 cells, GFP-rTREK-1, whole-cell patch clamp; read-out: block % at 101 μM
metric: inhibition at 101 µM (%)

Before answering, review these 3 worked examples.
compound	unit_symbol	inhibition at 101 µM
O[C@H](COc1ccc(C(F)(F)F)cc1)CN1CCC(N2CCCCC2)CC1 [KKRE10188]	%	55.6
CC[C@H]1CN2CC[C@H]1C[C@H]2[C@H](O)c1ccnc2ccc(OC)cc12 [hydroquinine, reference compound]	%	19.8
Cc1ccccc1-n1nc(CNC(=O)CN2CCN(C[C@@H](O)COc3ccc(F)cc3)CC2)cc1CC(C)C [KKRE10225]	%	13.1

(1) CC(C)Cc1cc(CNC(=O)CN2CCN(C[C@H](O)COc3ccc(F)cc3)CC2)nn1-c1ccc(F)cc1 [KKRE10228]
(2) O[C@@H](COc1ccc(F)cc1)CN1CCN(Cc2nccn2Cc2ccccc2)CC1 [KKRE10155]
Query: Of 1 and 2 , whose reported inhibition at 101 µM is the larger number? The response must carry the label of the picked entry.
Result: 1

(1) Cc1ccc(OC[C@@H](O)CN2CCN(Cc3c(F)cccc3Cl)CC2)cc1 [KKRE10138]
(2) CC(C)Cc1cc(CN2CCN(C[C@@H](O)COc3ccc(F)cc3)CC2)nn1-c1ccccc1 [KKRE10233]
(3) O[C@@H](COc1ccc(F)cc1)CN1CCC(N2CCCC2)CC1 [KKRE10160]
(4) Cc1ccc(F)cc1-n1nc(CNC(=O)CN2CCN(C[C@H](O)COc3ccc(F)cc3)CC2)cc1CC(C)C [KKRE10229]
(5) O=C(CN1CCN(C[C@@H](O)COc2ccc(C(F)(F)F)cc2)CC1)NC1CCCCC1 [KKRE10176]
Query: List the 5 entries from lowest inhibition at 101 µM to highest inhibition at 101 µM value. Please list each label once, in the requested order.
Result: 3, 1, 2, 5, 4
(3: 4.13%, 1: 13%, 2: 21.6%, 5: 33.5%, 4: 74.1%)

(A) CC(C)Cc1cc(CNC(=O)CN2CCN(C[C@H](O)COc3ccc(C(F)(F)F)cc3)CC2)nn1-c1ccc(F)cc1 [KKRE10219]
(B) OC(COc1ccc(F)cc1)CN1CCN(Cc2nccn2Cc2ccccc2)CC1 (stereo in doubt) [KKRE10154]
(C) CC(C)Cc1cc(CNC(=O)CN2CCN(C[C@@H](O)COc3ccc(F)cc3)CC2)nn1-c1cc(Cl)cc(Cl)c1 [KKRE10223]
(D) O[C@H](COc1ccc(F)cc1)CN1CCC(N2CCCC2)CC1 [KKRE10161]
Query: List the 4 entries from lowest inhibition at 101 µM to highest inhibition at 101 µM value. Please list each label once, in the requested order.
Result: D, B, A, C
